Reference for the values: ChEMBL document CHEMBL3885861

# Species on record: Rattus norvegicus
# TEST: Open TG-GATES - Regimen: Single
# Format: toxicity, organism-based, Sprague-Dawley
# Set-up: regimen Single, gender Male, age 6 weeks
# EXPERIMENTAL_SETUP: in vivo, po, 0 mg/kg, 6 h, tissue Plasma, route gavage, dose level Control
MEASURED_QUANTITY: Cl (meq/L)
Enter your answer as a number in meq/L; do not include the unit.

// query Need Cl of CCOc1ccc(NC(=O)CC(C)O)cc1 (stereo not given) , thanks.
// result 105.6

// query // returns reported Cl for input NC(N)=Nc1nc(CSCCC(N)=NS(N)(=O)=O)cs1
// result 102.6

// query # get_value(readout='Cl', item= NNC(=O)c1ccncc1 )
// result 104.2

// query For CN(C)CCN(Cc1cccs1)c1ccccn1 , what is its reported Cl?
// result 106.2

// query I'd like to know its Cl. The molecule in question is CC/C(=C(\c1ccccc1)c1ccc(OCCN(C)C)cc1)c1ccccc1
// result 110.2

// query Form field: reported Cl of CCOC(=O)CCC(=O)O[C@H]1[C@H](O[C@@H]2[C@@H](C)[C@H](O[C@H]3C[C@@](C)(OC)[C@@H](O)[C@H](C)O3)[C@@H](C)C(=O)O[C@H](CC)[C@@](C)(O)[C@H](O)[C@@H](C)C(=O)[C@H](C)C[C@@]2(C)O)O[C@H](C)C[C@@H]1N(C)C [ERYTHROMYCIN ETHYLSUCCINATE]
// result 103.4

// query GET /values?readout=Cl&item= COc1ccc2[nH]c([S+]([O-])Cc3ncc(C)c(OC)c3C)nc2c1 (stereo not given)
// result 100.8

// query Item under review: COC1=CC(=O)C[C@@H](C)[C@]12Oc1c(Cl)c(OC)cc(OC)c1C2=O . Reported Cl?
// result 103.4

// query GET /values?readout=Cl&item= CCCNC(=O)NS(=O)(=O)c1ccc(Cl)cc1 [CHLORPROPAMIDE]
// result 106

// query Requested read-out: Cl. Entry: CC1=C(/C=C/C(C)=C/C=C/C(C)=C/CO)C(C)(C)CCC1
// result 106.4

----------
# Species on record: Rattus norvegicus
# TEST: Open TG-GATES - Regimen: Single
# Format: toxicity, organism-based, Sprague-Dawley
# Parameters: regimen Single, gender Male, age 6 weeks
# EXPERIMENTAL_SETUP: in vivo, po, 100 mg/kg, 6 h, tissue Blood, route gavage, dose level Low
MEASURED_QUANTITY: MCV
Output should be the measured figure followed by the unit it is expressed in.

// query Quick one: MCV of CCOC(=O)CCC(=O)O[C@H]1[C@H](O[C@@H]2[C@@H](C)[C@H](O[C@H]3C[C@@](C)(OC)[C@@H](O)[C@H](C)O3)[C@@H](C)C(=O)O[C@H](CC)[C@@](C)(O)[C@H](O)[C@@H](C)C(=O)[C@H](C)C[C@@]2(C)O)O[C@H](C)C[C@@H]1N(C)C [ERYTHROMYCIN ETHYLSUCCINATE] ?
// result 63.4 fL

// query GET /values?readout=MCV&item= COC1=CC(=O)C[C@@H](C)[C@]12Oc1c(Cl)c(OC)cc(OC)c1C2=O [GRISEOFULVIN]
// result 64.2 fL

// query Any idea what MCV was measured for NC(N)=Nc1nc(CSCCC(N)=NS(N)(=O)=O)cs1 [FAMOTIDINE] ?
// result 62.3 fL

// query Look up MCV for this compound: COc1ccc2[nH]c([S+]([O-])Cc3ncc(C)c(OC)c3C)nc2c1 (centres undefined) [OMEPRAZOLE]
// result 61.7 fL
